B1: Hsp70 10mer peptide Ac-GSGPTIEEVD-OH [modified: N-terminal acetyl; N-terminal acetyl] [not stated] / protein phosphatase 5 (PP5), human, full-length [human] (parent complex)
chain 1: GSGPTIEEVD
chain 2: MAMAEGERTECAEPPRDEPPADGALKRAEELKTQANDYFKAKDYENAIKFYSQAIELNPSNAIYYGNRSLAYLRTECYGYALGDATRAIELDKKYIKGYYRRAASNMALGKFRAALRDYETVVKVKPHDKDAKMKYQECNKIVKQKAFERAIAGDEHKRSVVDSLDIESMTIEDEYSGPKLEDGKVTISFMKELMQWYKDQKKLHRKCAYQILVQVKEVLSKLSTLVETTLKETEKITVCGDTHGQFYDLLNIFELNGLPSETNPYIFNGDFVDRGSFSVEVILTLFGFKLLYPDHFHLLRGNHETDNMNQIYGFEGEVKAKYTAQMYELFSEVFEWLPLAQCINGKVLIMHGGLFSEDGVTLDDIRKIERNRQPPDSGPMCDLLWSDPQPQNGRSISKRGVSCQFGPDVTKAFLEENNLDYIIRSHEVKAEGYEVAHGGRCVTVFSAPNYCDQMGNKASYIHLQGSDLRPQFHQFTAVPHPNVKPMAYANTLLQLGMM

# Variants of: B1
# test: competition fluorescence polarisation; read at the highest peptide concentration, 100 µM; read off a plot
experimental_endpoint: response

chain 1 V9A :: ~56 % tracer bound

## Task Which response reading was recorded for the variant chain 1 I6A ?
## Result ~12 % tracer bound

## Task Let us now turn to chain 1 D10A
## Result ~110 % tracer bound

## Task Let us now turn to chain 1 E7A
## Result ~36 % tracer bound

## Task Let us now turn to chain 1 E8A
## Result ~74 % tracer bound
